- ASSAYED TARGET: T1, ILT-2_6xHis recombinant protein (human, UniProt Q8NHL6 24-458)
- T1 construct: monomers purified by SEC; also called recombinant 6xHIS tagged ILT2; recombinant human ILT2 proteins
- T1 sequence (Q8NHL6 other isoform, or with tags, fused parts or gaps limits assumed): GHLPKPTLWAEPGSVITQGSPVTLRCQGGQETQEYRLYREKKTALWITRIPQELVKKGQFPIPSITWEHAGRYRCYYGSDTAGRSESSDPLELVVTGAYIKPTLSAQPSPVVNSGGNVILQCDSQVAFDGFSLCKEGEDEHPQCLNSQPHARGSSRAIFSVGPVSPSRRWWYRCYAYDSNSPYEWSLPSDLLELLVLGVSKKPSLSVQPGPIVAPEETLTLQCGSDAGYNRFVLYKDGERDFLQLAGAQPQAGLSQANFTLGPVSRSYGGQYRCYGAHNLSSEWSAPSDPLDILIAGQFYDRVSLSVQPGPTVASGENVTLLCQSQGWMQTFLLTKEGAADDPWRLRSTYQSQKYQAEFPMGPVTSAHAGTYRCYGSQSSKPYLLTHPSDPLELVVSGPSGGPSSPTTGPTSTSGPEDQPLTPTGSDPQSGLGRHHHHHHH
- TEST SUMMARY: SPR, antibody captured on Protein-A, soluble ILT2 analyte
QUANTITY NAME: koff (s⁻¹)
State the answer as a number, implicitly in s⁻¹.

q: Requested field: koff. Item: 27C10 (antibody, human IgG1, V domains shown) VH: EVQLQESGPGLVKPSQSLSLTCSVTGYSITSGYYWNWIRQFPENKLEWMGYIRYDGSNNYNPSLNNRISITRDASKNQFFLKLNSVTTEDTATYYCARGWLLWFYAVDYWGQGTSVTVSS VL: DVVMTQTPLSLPVSLGDQASISCRSSQSIVHTNGNTYLEWYLQKSGQSPKLLIYKVSNRLSGVPDRFSGSGSGTDFTLKISRVEAEDLGIYYCFQGSHVPWTFGGGTKLEIK
a: 0.0003

Sourced from patent US20220025056A1
